# STUDY_TARGET: EBOV GPddmuc (Ebola virus (EBOV), UniProt Q05320 33-650)
# PROCEDURE_TEXT: ELISA
Record form. Attribute: EC50. Fill in for each entry.
Be sure to follow the number with its unit.

# input Entry FVM40 (antibody, V domains shown) VH: EVQLVQSGAEVKRPGESLTISCKTSGYSFTDSWISWVRQMPGKGLEWMGSIYPGDSETKYNPSFQGHVTISADKSVTTTYLKWSSLKASDTATYYCVKGSETWGQGVLVTVSS VL: QPMLTQPASLSASPGASASLTCTFSGGINVAGYNILWYQQKAGSPPRYLLRYKSDSTKDQGSGVPSRFSGSKDASANTGILRISGLQSEDEADYYCAIGHSSGWIFGGGTRLTVL : reported EC50 = ?
# output 40 pM

# input Give the measured EC50 of FVM07 (antibody, V domains shown) VH: EVQLVQSGAEVKRPGESLTISCKTSGYSFTDSWIGWVRQMPGKGLEWMGSIYPGDSDTKYNPSFQGHVTISADKSISTTYLQWSSLKASDTATYYCVAREAYWGQGVLVTVSS VL: QPVLTQPASLSASPGASASLTCTFSGGINVAGYHIFWYQQKPGSPPRYLLRYKSDSDKGQGSGVPSRFSGSKDASANTGILRISGLQSEDEADYYCAIGHSSGVLFGGGTRLTVL .
# output 119 pM
